# Assay: AUC in rat at 2 mg/kg, iv administered as single dose
# Format: ADME, organism-based
# Parameters: dose 2 mg/kg, route intravenous
# Stated conditions: plasma
Observed property: AUC (ng·h/mL)

COc1cc(C(C)C)c(Oc2cnc(N)nc2N)cc1I
628
COc1cc(C(C)C)c(Oc2cnc(NC(CO)CO)nc2N)cc1I
495

* * *

# Assay: AUC in rat at 2 mg/kg, po administered as single dose
# Assay type: ADME, organism-based
# Design: dose 2 mg/kg, route oral
# Stated conditions: plasma
Observed property: AUC (ng·h/mL)

COc1cc(C(C)C)c(Oc2cnc(N)nc2N)cc1I
240
COc1cc(C(C)C)c(Oc2cnc(NC(CO)CO)nc2N)cc1I
237

* * *

# Assay: Tmax in rat at 2 mg/kg, po administered as single dose
# Type: ADME, organism-based
# Design: dose 2 mg/kg, route oral
# Stated conditions: in vivo
Observed property: Tmax (h)

a = COc1cc(C(C)C)c(Oc2cnc(NC(CO)CO)nc2N)cc1I
b = COc1cc(C(C)C)c(Oc2cnc(N)nc2N)cc1I
Prompt: Determine, for a and b , which has the greater value of Tmax. Please indicate the selected item by its label.
Response: b
(b: 1.33 h, a: 0.833 h)

* * *

# Target: P2X purinoceptor 3 (Rattus norvegicus, UniProt P49654)
# Sequence (P49654 whole entry): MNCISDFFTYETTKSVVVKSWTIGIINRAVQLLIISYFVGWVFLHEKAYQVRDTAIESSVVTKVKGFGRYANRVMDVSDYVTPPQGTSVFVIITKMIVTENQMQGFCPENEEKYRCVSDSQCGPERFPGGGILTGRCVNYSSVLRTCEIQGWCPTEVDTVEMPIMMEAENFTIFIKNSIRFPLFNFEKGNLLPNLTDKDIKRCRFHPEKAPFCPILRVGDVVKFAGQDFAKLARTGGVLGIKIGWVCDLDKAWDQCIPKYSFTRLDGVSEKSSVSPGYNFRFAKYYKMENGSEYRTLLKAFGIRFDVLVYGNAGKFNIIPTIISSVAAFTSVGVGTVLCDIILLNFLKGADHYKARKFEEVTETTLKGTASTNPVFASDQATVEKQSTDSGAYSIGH
# Assay: Antagonist activity at rat P2X3 receptor expressed in CHO cells by FLIPR
# Type: functional, cell-based
# Stated conditions: read-out: pIC50 (converted)
Observed property: IC50 (nM)

COc1cc(C(C)C)c(Oc2cnc(NCCN(C)C)nc2N)cc1I
158

I = COc1cc(C(C)C)c(Oc2cnc(NC3CCN(S(C)(=O)=O)CC3)nc2N)cc1I
II = COc1cc(C(C)C)c(Oc2cnc(NCCN3CCOCC3)nc2N)cc1I
Prompt: Compare I and II and name the one whose reported IC50 is smaller. Please indicate the selected item by its label.
Response: I

* * *

# Assay: Oral bioavailability in dog
# Format: ADME, organism-based, Canis lupus familiaris
# Stated conditions: in vivo
Observed property: bioavailability (%)

COc1cc(C(C)C)c(Oc2cnc(NC(CO)CO)nc2N)cc1I
79
COc1cc(C(C)C)c(Oc2cnc(N)nc2N)cc1I
72

* * *

# Assay: Half life in rat at 2 mg/kg, po administered as single dose
# Assay type: ADME, organism-based
# Design: dose 2 mg/kg, route oral
# Stated conditions: in vivo
Observed property: half-life (h)

COc1cc(C(C)C)c(Oc2cnc(N)nc2N)cc1I
2.09
COc1cc(C(C)C)c(Oc2cnc(NC(CO)CO)nc2N)cc1I
1.52

* * *

# Assay: Cmax in rat at 2 mg/kg, iv administered as single dose
# Assay type: ADME, organism-based
# Design: dose 2 mg/kg, route intravenous
# Stated conditions: in vivo
Observed property: Cmax (ng/mL)

COc1cc(C(C)C)c(Oc2cnc(N)nc2N)cc1I
589
COc1cc(C(C)C)c(Oc2cnc(NC(CO)CO)nc2N)cc1I
554

* * *

# Assay: Half life in dog
# Format: ADME, organism-based, Canis lupus familiaris
# Stated conditions: in vivo
Observed property: half-life (h)

P = COc1cc(C(C)C)c(Oc2cnc(NC(CO)CO)nc2N)cc1I
Q = COc1cc(C(C)C)c(Oc2cnc(N)nc2N)cc1I
Prompt: Determine, for P and Q , which has the greater value of half-life. Please indicate the selected item by its label.
Response: P
